Tested on: CHO cells
Assay: Cytotoxicity (MTS cell growth) in CHO cells
Format: cell-based, Chinese hamster
Details: Cricetulus griseus, CHO; 48 h at 37° C.; 1 mM AG 24 h prior to drug addition; triplicate
Provide the reported IC50 of each item.
Numeric answer plus unit only.

Some solved entries appear below for comparison.
NCCCCNCCCCNC1CCCCCCCCCCCCCC1 [Compound 46b] | 4.53 µM
NCCCNCCCNCC1CCCCCCCCCCCCCC1 [Compound 47a] | 82.9 µM

For each entry beneath this line, provide reported IC50.
1. NCCCCNCCCCNCC1CCCCCCCCCCCCCC1 [Compound 47b]
2. NCCCNCCCN1CCCCCCCCCCCCCC1 [Compound 44a, dihydromotuporamine C, reference compound]

1. 47.8 µM
2. 2.9 µM

* * *

Tested on: L3.6pl cells
Assay: Cytotoxicity IC50 and MTD determination in L3.6pl cells
Format: cell-based
Conditions: Homo sapiens, L3.6pl; 48 h at 37° C.; 250 μM AG 24 h prior to drug addition
measurement type: IC50 (µM)
Numbers only, in µM.

Some solved entries appear below for comparison.
NCCCNCCCNCC1CCCCCCCCCCCCCC1 [Compound 47a] | 89.4
NCCCCNCCCCNC1CCCCCCCCCCCCCC1 [Compound 46b] | 2.82
NCCCNCCCN1CCCCCCCCCCCCCC1 [Compound 44a, dihydromotuporamine C, reference compound] | 0.99

Let us examine a further case.
IC50 recorded for this molecule, NCCCCNCCCCNCC1CCCCCCCCCCCCCC1 [Compound 47b] , is 48.7

* * *

Tested on: CHO cells
Assay: Cytotoxicity (MTS cell growth) in CHO cells
Assay type: cell-based, Chinese hamster
Details: 48 h at 37° C.; 1 mM AG 24 h prior to drug addition; triplicate
Text: CHO cells were chosen along with a mutant cell line (CHO-MG*) to comment on how the synthetic conjugates gain access to the cells.^2c-e, 6 As discussed earlier, the CHO-MG* cell line is polyamine-transport deficient and represents a model for alternative modes of entry (other than PTS) including passive diffusion or use of another transporter. […]
measurement type: IC50 (nM)
Numbers only, in nM.

IC50 recorded for this compound, NCCCNCCCNC1CCCCCCCCCCCCCC1 [Compound 46a] , is 2840

* * *

Provide the reported inhibition at 0.6 µM of each item.
Tested on: L3.6pl cells
Assay: Wound healing assay (cell migration)
Assay type: cell-based, human
Details: Homo sapiens; 0.6 μM; 48 h; 250 μM AG
Method: A wound healing assay was employed to evaluate the anti-migration properties of compounds 44a-b, 46a-b, and 47a-b in L3.6p1 cells. […] Wound healing was measured by time-course imaging of each well using a computer-controlled microscope with an x,y,z stage which allowed for reproducible imaging over time. Each drug was evaluated for its dose-dependent inhibition of cell migration. […]
Give bare numbers, in %.

Some solved entries appear below for comparison.
NCCCCNCCCCNCC1CCCCCCCCCCCCCC1 [Compound 47b] | 29.6
NCCCNCCCNCC1CCCCCCCCCCCCCC1 [Compound 47a] | 38.4
NCCCCNCCCCNC1CCCCCCCCCCCCCC1 [Compound 46b] | 31.4

inhibition at 0.6 µM recorded for this molecule, NCCCNCCCN1CCCCCCCCCCCCCC1 [Compound 44a, dihydromotuporamine C, reference compound] , is 20.3

* * *

Provide the reported L3.6pl MTD of each item.
Test system: L3.6pl cells
Assay: Cytotoxicity IC50 and MTD determination in L3.6pl cells
Type: cell-based
Details: maximum tolerated dose; 48 h at 37° C.; 250 μM AG
Give bare numbers, in µM.

Some solved entries appear below for comparison.
NCCCCNCCCCNCC1CCCCCCCCCCCCCC1 [Compound 47b] | 40
NCCCNCCCNCC1CCCCCCCCCCCCCC1 [Compound 47a] | 80
NCCCNCCCN1CCCCCCCCCCCCCC1 [Compound 44a, dihydromotuporamine C, reference compound] | 0.6
NCCCNCCCNC1CCCCCCCCCCCCCC1 [Compound 46a] | 2.0

Let us examine a further case.
Here NCCCCNCCCCNC1CCCCCCCCCCCCCC1 [Compound 46b] was tested on L3.6pl cells, and its L3.6pl MTD came to 2.0

* * *

System: CHO-MG* cells
Assay: Cytotoxicity (MTS cell growth) in CHO-MG* cells
Format: cell-based, Chinese hamster
Settings: Cricetulus griseus, CHO-MG; 48 h at 37° C.; 1 mM AG 24 h prior to drug addition; triplicate
measurement type: pIC50
Give bare numbers, as −log10 of the molar value.

Some solved entries appear below for comparison.
NCCCNCCCNCC1CCCCCCCCCCCCCC1 [Compound 47a] | 4.06
NCCCNCCCN1CCCCCCCCCCCCCC1 [Compound 44a, dihydromotuporamine C, reference compound] | 5.53
NCCCCNCCCCNCC1CCCCCCCCCCCCCC1 [Compound 47b] | 4.34

Let us examine a further case.
pIC50 recorded for this compound, NCCCCNCCCCNC1CCCCCCCCCCCCCC1 [Compound 46b] , is 5.29
